Below is a list of entries, each paired with its recorded Relative net uptake rate (% of NC), Mean, MRP2-mediated E217βG uptake value.
SYSTEM: MRP2 (Homo sapiens, UniProt Q92887)
Sequence (Q92887 whole entry): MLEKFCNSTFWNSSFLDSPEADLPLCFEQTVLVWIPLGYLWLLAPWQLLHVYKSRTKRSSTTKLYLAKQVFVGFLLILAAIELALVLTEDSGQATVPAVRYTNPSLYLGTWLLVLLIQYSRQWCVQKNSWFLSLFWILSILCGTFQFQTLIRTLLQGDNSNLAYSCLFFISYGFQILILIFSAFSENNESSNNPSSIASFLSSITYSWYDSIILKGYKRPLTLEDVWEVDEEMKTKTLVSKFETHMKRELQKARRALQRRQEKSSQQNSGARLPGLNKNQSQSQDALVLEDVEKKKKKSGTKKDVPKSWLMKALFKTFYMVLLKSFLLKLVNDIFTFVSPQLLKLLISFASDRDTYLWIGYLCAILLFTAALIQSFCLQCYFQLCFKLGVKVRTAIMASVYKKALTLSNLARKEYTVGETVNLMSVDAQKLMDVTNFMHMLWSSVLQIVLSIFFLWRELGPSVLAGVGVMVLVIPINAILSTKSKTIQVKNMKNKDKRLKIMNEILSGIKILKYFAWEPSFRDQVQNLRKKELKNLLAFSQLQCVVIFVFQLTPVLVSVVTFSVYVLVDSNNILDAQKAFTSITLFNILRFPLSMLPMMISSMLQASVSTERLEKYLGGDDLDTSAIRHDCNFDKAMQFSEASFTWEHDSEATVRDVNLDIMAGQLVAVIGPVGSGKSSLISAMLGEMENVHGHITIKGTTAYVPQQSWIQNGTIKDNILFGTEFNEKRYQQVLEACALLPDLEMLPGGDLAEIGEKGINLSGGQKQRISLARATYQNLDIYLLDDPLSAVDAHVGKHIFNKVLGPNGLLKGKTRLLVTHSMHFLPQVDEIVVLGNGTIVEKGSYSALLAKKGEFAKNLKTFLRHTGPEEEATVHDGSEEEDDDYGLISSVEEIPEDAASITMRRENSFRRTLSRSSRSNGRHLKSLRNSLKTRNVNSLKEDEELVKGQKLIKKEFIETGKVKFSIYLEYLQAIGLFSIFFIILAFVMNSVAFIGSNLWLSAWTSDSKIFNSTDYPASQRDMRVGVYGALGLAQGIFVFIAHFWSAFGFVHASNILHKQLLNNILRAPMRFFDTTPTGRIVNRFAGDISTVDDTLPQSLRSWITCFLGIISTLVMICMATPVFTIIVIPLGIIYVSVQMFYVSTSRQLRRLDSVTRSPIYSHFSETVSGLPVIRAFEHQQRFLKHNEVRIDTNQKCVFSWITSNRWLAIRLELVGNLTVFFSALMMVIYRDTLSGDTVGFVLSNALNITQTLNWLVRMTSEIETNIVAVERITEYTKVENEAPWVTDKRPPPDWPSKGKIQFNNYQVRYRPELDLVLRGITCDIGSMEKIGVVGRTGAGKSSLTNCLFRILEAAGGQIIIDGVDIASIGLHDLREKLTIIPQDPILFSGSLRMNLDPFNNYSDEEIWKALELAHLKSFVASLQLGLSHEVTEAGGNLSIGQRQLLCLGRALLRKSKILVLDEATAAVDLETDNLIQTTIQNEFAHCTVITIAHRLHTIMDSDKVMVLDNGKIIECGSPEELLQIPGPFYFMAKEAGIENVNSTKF
ASSAY SUMMARY: Inhibitory effect of seven drugs on MRP2-mediated E217βG uptake (vesicles)
Assay type: biochemical
Set-up: purchased GenoMembrane (Tokyo, Japan) Product No. 0001
CONDITION INFO: 50 μM or 50 μg/mL; N = 2

Take a look at these entries with their results.
CCN1CCN(C(=O)N[C@@H](C(=O)N[C@@H]2C(=O)N3C(C(=O)O)=C(CSc4nnnn4C)CS[C@H]23)c2ccc(O)cc2)C(=O)C1=O; 104 % of NC
C[C@@H](O)[C@H]1C(=O)N2C(C(=O)O)=C(S[C@@H]3CN[C@H](C(=O)N(C)C)C3)[C@H](C)[C@H]12; 137 % of NC
O=C(c1cc(Cc2n[nH]c(=O)c3ccccc23)ccc1F)N1CCN(C(=O)C2CC2)CC1; 136 % of NC
COc1ccnc(C[S+]([O-])c2nc3ccc(OC(F)F)cc3[nH]2)c1OC (centres unmarked); 134 % of NC

Turning now to a further record.
Looking up `CCCCC[C@H](O)/C=C/[C@H]1[C@H](O)CC(=O)[C@@H]1CCCCCCC(=O)O` , I found its Relative net uptake rate (% of NC), Mean, MRP2-mediated E217βG uptake recorded as 137 % of NC

---

SYSTEM: OATP1B3 (Homo sapiens)
Construct: host or cells: HEK293
Sequence (Q9NPD5 whole entry): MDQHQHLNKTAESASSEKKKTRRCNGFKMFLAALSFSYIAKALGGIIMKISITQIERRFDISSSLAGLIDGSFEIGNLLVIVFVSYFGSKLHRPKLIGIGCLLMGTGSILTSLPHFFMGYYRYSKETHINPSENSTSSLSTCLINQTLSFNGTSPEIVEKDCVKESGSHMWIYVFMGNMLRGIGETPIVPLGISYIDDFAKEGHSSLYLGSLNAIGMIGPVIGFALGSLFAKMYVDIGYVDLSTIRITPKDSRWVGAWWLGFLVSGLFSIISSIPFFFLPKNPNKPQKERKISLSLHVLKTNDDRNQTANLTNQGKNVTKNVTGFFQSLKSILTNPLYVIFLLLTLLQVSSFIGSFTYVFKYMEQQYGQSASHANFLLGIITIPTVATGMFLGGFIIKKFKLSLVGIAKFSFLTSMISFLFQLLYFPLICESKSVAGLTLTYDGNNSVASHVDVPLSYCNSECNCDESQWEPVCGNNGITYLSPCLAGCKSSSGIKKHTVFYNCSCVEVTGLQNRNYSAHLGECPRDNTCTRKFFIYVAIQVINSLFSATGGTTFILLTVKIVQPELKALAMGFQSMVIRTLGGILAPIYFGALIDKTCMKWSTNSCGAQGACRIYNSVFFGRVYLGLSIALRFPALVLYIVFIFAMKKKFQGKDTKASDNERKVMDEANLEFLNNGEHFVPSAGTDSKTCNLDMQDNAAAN
ASSAY SUMMARY: Inhibitory effect of seven drugs on OATP1B3-mediated E217βG uptake
Type: cell-based
CONDITION INFO: 50 μM or 50 μg/mL; N = 2
ENDPOINT LABEL: Relative net uptake rate (% of NC), Mean, OATP1B3-mediated E217βG uptake

Take a look at these entries with their results.
CCN1CCN(C(=O)N[C@@H](C(=O)N[C@@H]2C(=O)N3C(C(=O)O)=C(CSc4nnnn4C)CS[C@H]23)c2ccc(O)cc2)C(=O)C1=O; 67.5 % of NC
C[C@@H](O)[C@H]1C(=O)N2C(C(=O)O)=C(S[C@@H]3CN[C@H](C(=O)N(C)C)C3)[C@H](C)[C@H]12; 69.9 % of NC

OATP1B3 (Homo sapiens) assay, molecule COc1ccnc(C[S+]([O-])c2nc3ccc(OC(F)F)cc3[nH]2)c1OC (centres unmarked) , recorded Relative net uptake rate (% of NC), Mean, OATP1B3-mediated E217βG uptake = 67.7 % of NC

OATP1B3 (Homo sapiens) assay, molecule `CCCCC[C@H](O)/C=C/[C@H]1[C@H](O)CC(=O)[C@@H]1CCCCCCC(=O)O` , recorded Relative net uptake rate (% of NC), Mean, OATP1B3-mediated E217βG uptake = 59.6 % of NC

OATP1B3 (Homo sapiens) assay, molecule `O=C(c1cc(Cc2n[nH]c(=O)c3ccccc23)ccc1F)N1CCN(C(=O)C2CC2)CC1` , recorded Relative net uptake rate (% of NC), Mean, OATP1B3-mediated E217βG uptake = 72.4 % of NC
